# assay-target: T1, biotinylated huIL-23R-IgG (human, UniProt Q5VWK5 24-353, biotinylated)
# T1 construct: not shown: human IgG1 Fc
# T1 sequence: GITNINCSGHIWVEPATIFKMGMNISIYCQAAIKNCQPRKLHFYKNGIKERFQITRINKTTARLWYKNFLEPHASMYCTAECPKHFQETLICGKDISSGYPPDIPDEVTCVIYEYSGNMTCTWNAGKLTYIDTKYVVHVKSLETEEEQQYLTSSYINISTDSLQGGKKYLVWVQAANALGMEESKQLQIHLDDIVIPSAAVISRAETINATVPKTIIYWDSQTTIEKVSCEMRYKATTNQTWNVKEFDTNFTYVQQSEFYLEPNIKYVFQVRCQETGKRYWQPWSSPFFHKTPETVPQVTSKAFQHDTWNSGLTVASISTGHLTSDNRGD
# protocol-notes: ECL binding assay, periplasmic Fab extracts, biotinylated huIL-23R-IgG; AUC vs parental 8B10 Fab
Record form. Attribute: Binding (% of w.t.). Fill in for each entry.

Query string: What value of measured Binding (% of w.t.) is listed for chimeric 8B10 Fab, VH H101A (Fab, V domains shown, Rat V domains with human CH1 and CL; E. coli periplasmic extract) VH: EVKLVESGGGLEQPKGSLKLSCTVSGFDFNSYGMSWVRQAPGKGLDLVADINSKSYNYATYYADSVKDRFTISRDDSQSMVYLEMDNLKTEDTALYYCTVAHSDYFEYWGQGVMVTVSS VL: DIQMTQSPASLSASLGETVSIECLASEDIYNNLAWYQQKPGKSPQLLIYHASSLQDGVPSRFSGSGSGTQYSLKINSLESEDAATYFCLQDSEYPPTFGGGTKLELKR ?
Result string: 29.1 % of w.t.

Query string: What value of measured Binding (% of w.t.) is listed for chimeric 8B10 Fab, VL D28A (Fab, V domains shown, Rat V domains with human CH1 and CL; E. coli periplasmic extract) VH: EVKLVESGGGLEQPKGSLKLSCTVSGFDFNSYGMSWVRQAPGKGLDLVADINSKSYNYATYYADSVKDRFTISRDDSQSMVYLEMDNLKTEDTALYYCTVHHSDYFEYWGQGVMVTVSS VL: DIQMTQSPASLSASLGETVSIECLASEAIYNNLAWYQQKPGKSPQLLIYHASSLQDGVPSRFSGSGSGTQYSLKINSLESEDAATYFCLQDSEYPPTFGGGTKLELKR ?
Result string: 93.1 % of w.t.

Query string: What value of measured Binding (% of w.t.) is listed for chimeric 8B10 Fab, VH K54A (Fab, V domains shown, Rat V domains with human CH1 and CL; E. coli periplasmic extract) VH: EVKLVESGGGLEQPKGSLKLSCTVSGFDFNSYGMSWVRQAPGKGLDLVADINSASYNYATYYADSVKDRFTISRDDSQSMVYLEMDNLKTEDTALYYCTVHHSDYFEYWGQGVMVTVSS VL: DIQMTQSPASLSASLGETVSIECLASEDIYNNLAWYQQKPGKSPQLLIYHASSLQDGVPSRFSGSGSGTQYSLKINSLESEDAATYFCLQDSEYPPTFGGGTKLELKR ?
Result string: 71.1 % of w.t.

Query string: What value of measured Binding (% of w.t.) is listed for chimeric 8B10 Fab, VL S92A (Fab, V domains shown, Rat V domains with human CH1 and CL; E. coli periplasmic extract) VH: EVKLVESGGGLEQPKGSLKLSCTVSGFDFNSYGMSWVRQAPGKGLDLVADINSKSYNYATYYADSVKDRFTISRDDSQSMVYLEMDNLKTEDTALYYCTVHHSDYFEYWGQGVMVTVSS VL: DIQMTQSPASLSASLGETVSIECLASEDIYNNLAWYQQKPGKSPQLLIYHASSLQDGVPSRFSGSGSGTQYSLKINSLESEDAATYFCLQDAEYPPTFGGGTKLELKR ?
Result string: 68.4 % of w.t.

Query string: What value of measured Binding (% of w.t.) is listed for chimeric 8B10 Fab, VL H50A (Fab, V domains shown, Rat V domains with human CH1 and CL; E. coli periplasmic extract) VH: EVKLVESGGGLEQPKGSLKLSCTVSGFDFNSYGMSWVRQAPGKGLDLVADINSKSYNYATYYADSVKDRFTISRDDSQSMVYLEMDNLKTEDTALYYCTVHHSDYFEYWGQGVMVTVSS VL: DIQMTQSPASLSASLGETVSIECLASEDIYNNLAWYQQKPGKSPQLLIYAASSLQDGVPSRFSGSGSGTQYSLKINSLESEDAATYFCLQDSEYPPTFGGGTKLELKR ?
Result string: 62.2 % of w.t.
